Reported UI values for a set of compounds
test system: Rattus norvegicus; test: Toxicity inRattus norvegicus albino (rat) assessed as ulcer index at 200 mg/kg, po after 7 hr relative to control; format: organism-based; parameters: dose 200 mg/kg, route oral; conditions: in vivo
ASSAY_ENDPOINT: UI

- O=C(CSc1nnc(C2CCn3c(C(=O)c4ccccc4)ccc32)o1)c1cc2ccccc2oc1=O (stereo not drawn): 4.4
- C[C@H](c1ccc(-c2ccccc2)c(F)c1)c1nnc(SCC(=O)c2cc3ccccc3oc2=O)o1: 2.3
- CC(C(=O)O)c1ccc(-c2ccccc2)c(F)c1 (stereo not drawn): 5.3
- CC(c1cccc(C(=O)c2ccccc2)c1)c1nnc(SCC(=O)c2cc3ccccc3oc2=O)o1 (stereo not drawn): 3.2
- CC(C(=O)O)c1cccc(C(=O)c2ccccc2)c1 (stereo not drawn): 4.6
- O=C(CSc1nnc(Cc2ccccc2Nc2c(Cl)cccc2Cl)o1)c1cc2ccccc2oc1=O: 1.7
- O=C(O)Cc1ccccc1Nc1c(Cl)cccc1Cl: 5.5
- O=C(c1ccccc1)c1ccc2n1CCC2C(=O)O (stereo not drawn): 4.9
